- system: T1, monomeric SARS-CoV-2 receptor binding domain (RBD-H6) (SARS-CoV-2, UniProt P0DTC2 319-541)
- T1 construct: Made in HEK293-6E cells; also called RBD Spike; monomeric RBD
- assayMethodText: ELISA screen
Decide by Mean normalized OD: equal to or exceeding 0.01 OD means class 1, less means class 0.

binder	classification
Pla2r1_1 CRD-mouse IgG2a-Fc fusion protein (Fc fusion) SSRICYQFNLLSSLSWNQAHSSCLMQGGALLSIADEDEEDFIRKHLSKVVKEVWIGLNQLDEKAGWQWSDGTPLSYLNWSQEITPGPFVEHHCGTLEVVSAAWRSRDCESTLPYICKGGGSGGGSGGGS	class 0

For this binder, is measured Mean normalized OD 0.01 OD or higher? Cd69 CRD-mouse IgG2a-Fc fusion protein (Fc fusion) YKRTCYFFSTTTKSWALAQRSCSEDAATLAVIDSEKDMTFLKRYSGELEHWIGLKNEANQTWKWANGKEFNSWFNLTGSGRCVSVNHKNVTAVDCEANFHWVCSGGGSGGGSGGGS
class 0

For this binder, is measured Mean normalized OD 0.01 OD or higher? Klrg2 CRD-mouse IgG2a-Fc fusion protein (Fc fusion) SQEQCYYLSEEAQDWEGSQAFCSAHHATLPLLSHTQDFLRKYRITKGSWVGARRGPEGWHWTDGVPLPYQLFPADSEDHPDFSCGGLEEGRLVALDCSSPRPWVCAGGGSGGGSGGGS
class 1

For this binder, is measured Mean normalized OD 0.01 OD or higher? Clec2e CRD-mouse IgG2a-Fc fusion protein (Fc fusion) FGNKCFYFSEDMGNWTFSQSSCIALDAHLALFDSLEELNFLKRYKGASDHWIGLHRESSEHPWIWTDNTEYNNLVLTRGGGECAYLSNRGIYNSSGDIHKKWICNGGGSGGGSGGGS
class 1

Reference source for all entries: patent EP4039268A1
